Conditions: in methanol, 318.15 K

>  <compound>
CSCC1CN(/N=C/c2ccc([N+](=O)[O-])o2)C(=O)O1 (stereo unspecified)

>  <solubility (mole fraction)>
0.000177

$$$$

----------
Settings: in water, 313.15 K

>  <compound>
CSCC1CN(/N=C/c2ccc([N+](=O)[O-])o2)C(=O)O1 (stereo unspecified)

>  <solubility (mole fraction)>
4.74e-05

$$$$

----------
Conditions: in ethyl acetate, 323.15 K
recorded-endpoint: solubility (mole fraction)

>  <compound>
CSCC1CN(/N=C/c2ccc([N+](=O)[O-])o2)C(=O)O1 (stereo unspecified)

>  <result-value>
0.00106

$$$$

----------
Settings: in acetic acid, 328.15 K
recorded-endpoint: solubility (mole fraction)

>  <compound>
CSCC1CN(/N=C/c2ccc([N+](=O)[O-])o2)C(=O)O1 (stereo unspecified)

>  <result-value>
0.00133

$$$$

----------
Conditions: in DMSO, 323.15 K

>  <compound>
CSCC1CN(/N=C/c2ccc([N+](=O)[O-])o2)C(=O)O1 (stereo unspecified)

>  <solubility (mole fraction)>
0.0511

$$$$

----------
Conditions: in acetone, 293.15 K
recorded-endpoint: solubility (mole fraction)

>  <compound>
CSCC1CN(/N=C/c2ccc([N+](=O)[O-])o2)C(=O)O1 (stereo unspecified)

>  <result-value>
0.00109

$$$$

----------
Settings: in acetone, 328.15 K

>  <compound>
CSCC1CN(/N=C/c2ccc([N+](=O)[O-])o2)C(=O)O1 (stereo unspecified)

>  <solubility (mole fraction)>
0.0053

$$$$

----------
Details: in DMF, 328.15 K

>  <compound>
CSCC1CN(/N=C/c2ccc([N+](=O)[O-])o2)C(=O)O1 (stereo unspecified)

>  <solubility (mole fraction)>
0.0483

$$$$

----------
Details: in DMSO, 313.15 K

>  <compound>
CSCC1CN(/N=C/c2ccc([N+](=O)[O-])o2)C(=O)O1 (stereo unspecified)

>  <solubility (mole fraction)>
0.0367

$$$$

----------
Conditions: in dichloromethane, 298.15 K

>  <compound>
CSCC1CN(/N=C/c2ccc([N+](=O)[O-])o2)C(=O)O1 (stereo unspecified)

>  <solubility (mole fraction)>
0.00192

$$$$

----------
Details: in DMSO, 318.15 K
recorded-endpoint: solubility (mole fraction)

>  <compound>
CSCC1CN(/N=C/c2ccc([N+](=O)[O-])o2)C(=O)O1 (stereo unspecified)

>  <recorded-endpoint>
solubility (mole fraction)

>  <result-value>
0.0435

$$$$

----------
Conditions: in acetic acid, 323.15 K

>  <molecule>
CSCC1CN(/N=C/c2ccc([N+](=O)[O-])o2)C(=O)O1 (stereo unspecified)

>  <solubility (mole fraction)>
0.00104

$$$$

----------
Settings: in dichloromethane, 308.15 K
recorded-endpoint: solubility (mole fraction)

>  <compound>
CSCC1CN(/N=C/c2ccc([N+](=O)[O-])o2)C(=O)O1 (stereo unspecified)

>  <result-value>
0.00303

$$$$

----------
Conditions: in water, 328.15 K

>  <molecule>
CSCC1CN(/N=C/c2ccc([N+](=O)[O-])o2)C(=O)O1 (stereo unspecified)

>  <solubility (mole fraction)>
0.000101

$$$$

----------
Conditions: in THF, 318.15 K
recorded-endpoint: solubility (mole fraction)

>  <compound>
CSCC1CN(/N=C/c2ccc([N+](=O)[O-])o2)C(=O)O1 (stereo unspecified)

>  <recorded-endpoint>
solubility (mole fraction)

>  <result-value>
0.00209

$$$$
